Ref: ChEMBL document CHEMBL1155989

assay: Tmax in diet-induced obese C57BL/6J mouse at 10 mg/kg, po; assay type: ADME, organism-based; design: dose 10 mg/kg, route oral; conditions: in vivo
measure_name: Tmax (h)

>>> result_value("CCO/N=C(/c1ccc(F)c(F)c1)c1ccc(CN2CCC3(CC2)OCc2cn(C)c(=O)cc23)cn1")
2

---

test: Plasma clearance in Sprague-Dawley rat at 1 mg/kg, iv; type: ADME, organism-based; set-up: dose 1 mg/kg, route intravenous
measure_name: clearance (mL/min/kg)

>>> result_value("CCO/N=C(/c1ccc(F)c(F)c1)c1ccc(CN2CCC3(CC2)OCc2cn(C)c(=O)cc23)cn1")
13

---

experiment: Cmax in diet-induced obese C57BL/6J mouse at 30 mg/kg, po; type: ADME, organism-based; design: dose 30 mg/kg, route oral; settings: in vivo
measure_name: Cmax (µM)

>>> result_value("CCO/N=C(/c1ccc(F)c(F)c1)c1ccc(CN2CCC3(CC2)OCc2cn(C)c(=O)cc23)cn1")
15.6

---

test: Volume of distribution at steady state in Sprague-Dawley rat at 1 mg/kg, iv; assay type: ADME, organism-based; design: dose 1 mg/kg, route intravenous; settings: in vivo, read-out: Vdss
measure_name: Vd (L/kg)

>>> result_value("CCO/N=C(/c1ccc(F)c(F)c1)c1ccc(CN2CCC3(CC2)OCc2cn(C)c(=O)cc23)cn1")
1.6

---

assay: AUC (0 to infinity) in diet-induced obese C57BL/6J mouse at 10 mg/kg, po; type: ADME, organism-based; parameters: time infinity, dose 10 mg/kg, route oral; details: plasma
measure_name: AUC(0-inf) (µM·h)

>>> result_value("CCO/N=C(/c1ccc(F)c(F)c1)c1ccc(CN2CCC3(CC2)OCc2cn(C)c(=O)cc23)cn1")
15.4

---

remaining at 0.5 h by entry:
experiment: Metabolic stability in rat liver microsomes assessed as compound remaining after 30 mins; assay type: ADME, Microsome; details: read-out: Stability
measure_name: remaining at 0.5 h (%)

>>> result_value("O=C(C(c1ccc(F)c(F)c1)n1cccn1)N(CCF)CCCN1CCC2(CC1)OCc1cc(F)ncc12 (stereo not given)")
31
>>> result_value("CCO/N=C(/c1ccc(F)c(F)c1)c1ccc(CN2CCC3(CC2)OCc2cn(C)c(=O)cc23)cn1")
71
>>> result_value("CCO/N=C(/c1ccc(F)c(F)c1)c1ccc(CN2CCC3(CC2)OCc2cc(F)ncc23)cn1")
2
>>> result_value("CCO/N=C(/c1ccc(F)c(F)c1)c1ccc(CN2CCC3(CC2)OCc2cc(=O)n(C)cc23)cn1")
84
>>> result_value("Fc1cc2c(cn1)C1(CCN(Cc3ccc(Oc4ccc(F)c(F)c4)cc3)CC1)OC2")
4

---

assay: Plasma concentration in diet-induced obese C57BL/6J mouse at 30 mg/kg, po after 24 hrs; type: ADME, organism-based; set-up: dose 30 mg/kg, route oral
measure_name: concentration at 24 h (nM)

>>> result_value("CCO/N=C(/c1ccc(F)c(F)c1)c1ccc(CN2CCC3(CC2)OCc2cn(C)c(=O)cc23)cn1")
119

---

assay: Plasma concentration in Sprague-Dawley rat at 10 mg/kg, po after 2 hrs; format: ADME, organism-based; design: dose 10 mg/kg, route oral
measure_name: concentration at 2 h (µM)

>>> result_value("CCO/N=C(/c1ccc(F)c(F)c1)c1ccc(CN2CCC3(CC2)OCc2cn(C)c(=O)cc23)cn1")
4.5
